target: Myo3, P36006; experiment: SPOT array; settings: median of control spots 468
The threshold is 30. Values of SPOT intensity beneath it are tagged class 1; values meeting or exceeding it are tagged class 0.

// known answers, use as guide
>>> print(df.to_string())
            binder  label_value
0  EAEEAAPQLPSRSSA      class 1
1  HPRFVSPRIPSRIVK      class 1
2  FHLNPKRSAVLYDRP      class 1
3  LEFRAILFIPKRAPF      class 0

Ask: Check if SPOT intensity falls below 30 for SKIRPTPRKPSRMAT .
Result: class 0

Ask: SPOT intensity under 30? Item: DTFLPPPPPPPSNFE
Result: class 0

Ask: Does this binder meet the criterion SPOT intensity < 30? MSPLGAPPPPPHKDH
Result: class 0
